- Tested on: SK-MEL-5 melanoma
- assay: NCI tumour cell line growth inhibition, 48 h
TGI listing for selected compounds.
Give the value in µM but do not write µM after it.

{"mol.smiles": "C[C@@]12CCC3C1C=C1C(=O)c4cc(O)ccc4C(=O)[C@]1(O2)[C@@]3(C)C=O", "property": "TGI", "unit.string": "µM", "readout.value": 16.1}

Query: Identify measured TGI obtained with SK-MEL-5 melanoma for Cn1c(=O)c2c(no[n+]2[O-])c2ccccc21 .
Result: 26

* * *

- System: SNB-75 CNS
- assay: NCI tumour cell line growth inhibition, 48 h
property: TGI

{"molecule": "Nc1c(C(=O)Nc2cccc(Br)c2)sc2nc3c(cc12)C(=O)CCC3", "TGI": "> 52.2 µM"}
{"molecule": "CS(=O)(=O)CCCn1c(=O)c(Oc2ccc(F)cc2F)cc2cnc(NC3CCOCC3)nc21", "TGI": "> 25 µM"}
{"molecule": "COC12C=C/C(=C(/C(=O)OCc3ccncc3)C(=O)CCCCCCCCC3(OC)C=C/C(=C(/C(=O)OCc4ccncc4)C(=O)CCCCCCCC1)O3)O2", "TGI": "1.97 µM"}
{"molecule": "CC1=C2CCCC2=C/C(=N/Nc2ccc([N+](=O)[O-])cc2[N+](=O)[O-])CC1", "TGI": "> 100 µM"}
{"molecule": "O=C(CC(O)(C(F)(F)F)C(F)(F)F)c1cc(CC(=O)C(O)(C(F)(F)F)C(F)(F)F)cc(CC(=O)C(O)(C(F)(F)F)C(F)(F)F)c1", "TGI": "6.73 µM"}

Query: Using SNB-75 CNS as the test system, report measured TGI of Nc1nc(N)c(N=Nc2ccc([As](=O)(O)O)cc2)c(=O)[nH]1 .
Result: > 100 µM

Query: Report TGI under test system SNB-75 CNS for CC(=O)OC1(C#N)CC2OC1C1C2N=NN1C(=O)OC(C)(C)C (stereo unspecified) .
Result: > 100 µM

Query: # lookup: SNB-75 CNS TGI, key = CCCC(O)C(NC(=O)CCl)C(=O)O (stereo unspecified)
Result: > 100 µM

Query: Quote SNB-75 CNS TGI for entry Cc1ccc(-c2nc3ccc([N+](=O)[O-])cc3[nH]2)cc1 .
Result: > 100 µM

Query: Send back SNB-75 CNS TGI of Cc1ccc(Cn2c(C)nc3c2C(=O)c2ccccc2C3=O)cc1 only.
Result: 36.3 µM

Query: Report the value of TGI obtained on SNB-75 CNS for COc1ccc(C(OC(C)=O)C2C(=C(C#N)C#N)c3ccccc3C2=C(C#N)C#N)cc1 (stereo unspecified) .
Result: > 100 µM

Query: Print SNB-75 CNS TGI for O=C1NC(=S)NNC12c1ccccc1-c1ccccc12 .
Result: > 10 µM

Query: Answer with TGI of Cc1ccc(NC(=O)C2C(=O)N(c3ccc(C)c(C)c3)C(=O)C2N=N)cc1C (stereo unspecified) measured for SNB-75 CNS.
Result: > 100 µM

* * *

- System: OVCAR-3 ovarian
- assay: NCI tumour cell line growth inhibition, 48 h
property: TGI

Known results for compounds:
{"compound": "Cc1[nH]c2ccccc2c1-c1cc(-c2cc(-c3c(C)[nH]c4ccccc34)on2)no1", "TGI": "> 100 µM"}
{"compound": "COc1ccc2oc(-c3cccnc3)cc(=O)c2c1", "TGI": "> 100 µM"}

Query: Specify measured TGI for Cc1c(CNc2ccc(C(=O)NC(CC(=O)O)C(=O)O)cc2)ccc2nc(N)nc(N)c12 (stereo unspecified) .
Result: > 1000 µM

Query: Recall and state the measured TGI for O=C1c2ccccc2C2(O)c3cc4ccccc4cc3OC12O (stereo unspecified) .
Result: > 100 µM

Query: Find the measured TGI of O=C1NN=C2C=C(c3ccc(Cl)cc3)CC(c3cccc(Cl)c3)C12 (stereo unspecified) and report it.
Result: > 100 µM

Query: Consider the compound O=c1[nH]cc(COCCO)c(=O)[nH]1 . State its measured TGI.
Result: > 100 µM

* * *

- Test system: RPMI-8226 leukemia
- assay: NCI tumour cell line growth inhibition, 48 h
Entries and their TGI values follow.

Study these solved cases before continuing.
{"molecule": "NS(=O)(=O)c1ccc(N(/C=C/C(=O)C(F)(F)F)CC(=O)c2ccc(Cl)cc2)cc1", "TGI": "53.6 µM"}
{"molecule": "Cc1cc(OCc2nnc3n2N=C(c2cc(F)c(Cl)cc2Cl)/C(=C/c2ccc(Cl)cc2)S3)ccc1Cl", "TGI": "33.2 µM"}
{"molecule": "Cn1cnc([N+](=O)[O-])c1S(=O)(=O)Oc1ccccc1", "TGI": "17.6 µM"}

Query: # lookup: RPMI-8226 leukemia TGI, key = Cc1ccc(Cl)cc1Nc1nc(C(F)(F)F)ccc1C(=O)N1CCN(c2cccc(Cl)c2)CC1
Result: > 100 µM

Query: State TGI (RPMI-8226 leukemia) of COc1c(OC)c(OC)c(C(=O)/C=C/c2ccccc2)c(OC)c1OC .
Result: 20.3 µM

Query: Identify measured TGI obtained with RPMI-8226 leukemia for COC1C(O)=C2C(=O)O/C(C)=C/C=C/C=C/C=C\CC(c3ccccc3)NC(=O)\C=C/C=C\C=C\C=C\[C@@]2(C)[C@@H]1O (stereo not given in full) .
Result: 0.0445 µM

Query: Report TGI under test system RPMI-8226 leukemia for Cc1cccc(C(C)C)c1NC(=O)CC1Sc2ccccc2NC1=O (stereo not given) .
Result: > 100 µM

Query: // output TGI; input CC(=O)OC1O[C@@H](C(C)(C)O)CC[C@@H]1[C@H]1CC[C@@]2(C)C3=C(CC[C@]12C)[C@@]1(C)C[C@@H](OC(=O)CC(C)(O)CC(=O)O)[C@H](OC(C)=O)C(C)(C)C1CC3 (stereo not given in full) ; system RPMI-8226 leukemia
Result: 53.8 µM

Query: Name the recorded TGI of CC(C)(C)NC(=O)N1N=C(c2ccccc2)C1c1ccccc1 (stereo not given) , assay system RPMI-8226 leukemia.
Result: 46 µM

Query: Supply TGI measured with RPMI-8226 leukemia for O=C(c1ccc(Cl)cc1)c1cnc(Nc2ccccc2Cl)s1 .
Result: > 100 µM

Query: Supply TGI measured with RPMI-8226 leukemia for O=c1[nH]c(=O)n(C2CC(O)C(CO)O2)cc1CO (stereo not given) .
Result: > 100 µM

Query: Look up and report TGI, with RPMI-8226 leukemia as system, for COc1ccc(-c2c(C#N)c(O)n(NS(=O)(=O)c3ccc(C)cc3)c(=O)c2C#N)cc1
Result: 54.3 µM

Query: Fetch value of TGI on RPMI-8226 leukemia for Cc1ccc(-c2nc3ccc([N+](=O)[O-])cc3[nH]2)cc1 .
Result: > 100 µM

Query: Name the recorded TGI of Cc1csc(Nc2nc(-c3cccc(Br)c3)nc(C(Cl)(Cl)Cl)n2)n1 , assay system RPMI-8226 leukemia.
Result: > 100 µM

Query: Name the value of TGI reported for c1ccc(SC2CCSc3ccccc3C2Sc2ccccc2)cc1 (stereo not given) when tested on RPMI-8226 leukemia.
Result: > 100 µM

Query: State TGI on RPMI-8226 leukemia. Entry: O=c1c2ccccc2sc2cccc(NCCCN3CCN(CCCNc4cccc5sc6ccccc6c(=O)c45)CC3)c12
Result: > 100 µM

Query: Under RPMI-8226 leukemia: report TGI of COc1ccc2[nH]cc(-c3nc(-c4c[nH]c5ncccc45)cs3)c2c1 .
Result: > 100 µM

Query: Fetch value of TGI on RPMI-8226 leukemia for Nc1c(C(=O)Nc2cccc(Br)c2)sc2nc3c(cc12)C(=O)CCC3 .
Result: > 100 µM

* * *

- Tested on: TK-10 renal
- assay: NCI tumour cell line growth inhibition, 48 h
Let's look at some compounds and their measured log10 of TGI.
Would you kindly interpret these values as log10 of TGI expressed in µM?

{"compound": "CC(CCC#N)(CCC#N)C(=O)CC(O)(C(F)(F)F)C(F)(F)F", "target.or.system": "TK-10 renal", "property": "log10 of TGI", "readout.value": 1.40}
{"compound": "Cc1cn2c(/C=C3\\C(=O)Nc4ccc(O)cc43)c(-c3ccc(Cl)cc3)nc2s1", "target.or.system": "TK-10 renal", "property": "log10 of TGI", "readout.value": 1.72}
{"compound": "CC1(C)OC(=C(C#N)C#N)C(C#N)=C1/C=C/c1ccncc1", "target.or.system": "TK-10 renal", "property": "log10 of TGI", "readout.value": 0.61}

Query: Return the recorded log10 of TGI value; entry: CC(=O)OC1O[C@@H](C(C)(C)O)CC[C@@H]1[C@H]1CC[C@@]2(C)C3=C(CC[C@]12C)[C@@]1(C)C[C@@H](OC(=O)CC(C)(O)CC(=O)O)[C@H](OC(C)=O)C(C)(C)C1CC3 (some centres undefined)
Result: 1.52

Query: Look up and state reported log10 of TGI for COC(=O)C1C=CN(N(C)C)C2=C1C(=O)c1c(O)cccc1C2=O (centres undefined)
Result: 1.18

Reference for the values: PubChem BioAssay (NCI)
